STUDY_SYSTEM: Cyclin-dependent kinase 9 (Homo sapiens, UniProt P50750)
Sequence (P50750 whole entry): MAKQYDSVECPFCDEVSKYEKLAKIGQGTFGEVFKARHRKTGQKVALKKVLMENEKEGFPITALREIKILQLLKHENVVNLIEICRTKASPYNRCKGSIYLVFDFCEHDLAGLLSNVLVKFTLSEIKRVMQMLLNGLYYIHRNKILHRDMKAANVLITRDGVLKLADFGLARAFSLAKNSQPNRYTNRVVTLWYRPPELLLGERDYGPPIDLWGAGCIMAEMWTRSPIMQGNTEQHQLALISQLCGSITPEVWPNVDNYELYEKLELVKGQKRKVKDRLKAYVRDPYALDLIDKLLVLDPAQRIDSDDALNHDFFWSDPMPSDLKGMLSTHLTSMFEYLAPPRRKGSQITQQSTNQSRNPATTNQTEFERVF
pIC50: −log10 of the molar value.
Reported pIC50 values are given for each entry in this list.
ENDPOINT_NAME: pIC50

• COC(=O)N1CCN([C@H]2CC[C@H](Nc3ncnc4ccc(C#N)cc34)CC2)CC1 = 6.43
• COC(=O)N1CCN([C@H]2CC[C@H](Nc3nc(Nc4cnn(C)c4)nc4ccc(CC#N)nc34)CC2)CC1 = 4.89

###

RUN_DESCRIPTION: Unbound fraction in mouse plasma at 37 degC by equilibrium dialysis
Format: ADME, cell-free
ENDPOINT_NAME: fraction unbound

- COC(=O)N1CCN([C@H]2CC[C@H](Nc3ncnc4ccc(C#N)cc34)CC2)CC1: 0.28
- COC(=O)N1CCN([C@H]2CC[C@H](Nc3nc(Nc4cnn(C)c4)nc4ccc(CC#N)nc34)CC2)CC1: 0.44
